- measurement-target: Human LATS2 catalytic domain (Homo sapiens (Human), UniProt Q9NRM7)
- Sequence (Q9NRM7 553-1088): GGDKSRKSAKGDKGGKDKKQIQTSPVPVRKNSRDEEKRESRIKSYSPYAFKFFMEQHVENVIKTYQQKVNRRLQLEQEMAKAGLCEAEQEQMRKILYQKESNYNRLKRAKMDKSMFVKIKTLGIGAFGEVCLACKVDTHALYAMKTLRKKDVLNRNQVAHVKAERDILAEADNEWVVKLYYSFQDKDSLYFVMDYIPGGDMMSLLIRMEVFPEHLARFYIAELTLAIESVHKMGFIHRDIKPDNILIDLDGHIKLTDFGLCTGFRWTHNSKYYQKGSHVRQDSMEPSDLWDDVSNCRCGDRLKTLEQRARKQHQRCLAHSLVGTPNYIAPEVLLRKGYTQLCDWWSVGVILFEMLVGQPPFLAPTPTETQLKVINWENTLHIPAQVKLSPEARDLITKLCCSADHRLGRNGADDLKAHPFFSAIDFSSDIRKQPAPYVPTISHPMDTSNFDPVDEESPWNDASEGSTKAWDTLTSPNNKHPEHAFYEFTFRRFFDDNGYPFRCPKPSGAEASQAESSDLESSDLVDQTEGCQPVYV
- Sequence (Q7L9L4 whole entry partner, the tested form may be a part): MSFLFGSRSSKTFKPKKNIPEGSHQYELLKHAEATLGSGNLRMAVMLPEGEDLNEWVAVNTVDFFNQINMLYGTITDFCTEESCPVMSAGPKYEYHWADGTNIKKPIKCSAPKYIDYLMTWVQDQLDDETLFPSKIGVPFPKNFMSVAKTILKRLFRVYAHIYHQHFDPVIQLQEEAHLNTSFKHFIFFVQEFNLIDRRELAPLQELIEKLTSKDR
- measurement-description: LATS2 High ATP HTRF Assay
- Assay type: biochemical
- condition-parameters: no asterisk: LATS2 High ATP HTRF Assay, 5000 μM ATP, 0.05 nM LATS2
reported-endpoint: Ki (nM)

• Clc1nccc2c(N3CCC4(CCNC4)CC3)nc(-c3ccncc3)nc12 = 0.31
• O=C(C1CC2(CCN(c3nc(-c4ccncc4)nc4cnccc34)CC2)CN1)N1CCCC1 (centres unmarked) = 11.1
• Cc1n[nH]cc1-c1nc(N2CCC3(CCN(CCCO)C3)CC2)c2ccncc2n1 = 0.045
• Cc1n[nH]cc1-c1nc(N2CCC3(CCN(CC4COC4)C3)CC2)c2ccncc2n1 = 0.053
• O[C@H]1CC[C@@H]1N1CCC2(CCN(c3nc(-c4ccncc4)nc4cnccc34)CC2)C1 (single isomer, unassigned) = 0.97
• Cc1n[nH]cc1-c1nc(N2CCC3(CCN(C)C3)CC2)c2cc(Cc3ccccc3)ncc2n1 = 0.016
• c1cc(-c2nc(N3CCC4(CC3)CCN(C3CCOC3)C4)c3ccncc3n2)ccn1 (racemic) = 0.14
• COc1cncc2nc(-c3ccncc3)nc(N3CCC4(CCN(CC(C)(C)O)C4)CC3)c12 = 0.033

* * *

compounds and their reported pKi
- measurement-target: Human LATS2 catalytic domain (Homo sapiens (Human), UniProt Q9NRM7)
- measurement-description: LATS2 High ATP HTRF Assay
- Assay type: biochemical
- condition-parameters: no asterisk: LATS2 High ATP HTRF Assay, 5000 μM ATP, 0.05 nM LATS2
pKi: −log10 of the molar value.
reported-endpoint: pKi

• CN1CC2(CCN(c3nc(-c4ccncc4)nc4cnccc34)CC2)CC1CO (racemic) = 9.39
• CC(=O)N1CCC2(CCN(c3nc(-c4ccncc4)nc4cnccc34)CC2)C1 = 7.78
• Cc1nn(C)cc1-c1nc(N2CCC3(CC2)CCN(C2CCCC2)C3)c2ccncc2n1 = 7.22
• OCC1CC2(CCN(c3nc(-c4ccncc4)nc4cnccc34)CC2)CN1C1CCCC1 (stereo not drawn) = 10.00
• OC1(CN2CCC3(CCN(c4nc(-c5ccncc5)nc5cnccc45)CC3)C2)COC1 = 9.96
• Cc1n[nH]cc1-c1nc(N2CCC3(CCNC3)CC2)c2ccncc2n1 = 10.43
• Cc1n[nH]cc1-c1nc(N2CCC3(CCN(CCF)C3)CC2)c2ccncc2n1 = 10.17
• COCc1nccc2c(N3CCC4(CCNC4)CC3)nc(-c3ccncc3)nc12 = 9.12
• Cc1n[nH]cc1-c1nc(N2CCC3(CC2)CCN([C@@H]2CCC[C@H]2O)C3)c2ccncc2n1 (single isomer, unassigned) = 10.43
• CC(=O)NCCN1CCC2(CCN(c3nc(-c4ccncc4)nc4cnccc34)CC2)C1 = 8.96
• CCN1CCC2(CCN(c3nc(-c4ccncc4)nc4cnccc34)CC2)C1 = 9.21
• COc1cncc2nc(-c3c[nH]nc3C)nc(N3CCC4(CCN(C)C4)CC3)c12 = 10.59
• c1cc(-c2nc(N3CCC4(CC3)CCN(C3CCCCC3)C4)c3ccncc3n2)ccn1 = 10.52
• CC1CC2(CCN(c3nc(-c4ccncc4)nc4cnccc34)CC2)CN1C (stereo not drawn) = 8.79
• c1cc(-c2nc(N3CCC4(CCNC4)CC3)c3c(C4CC4)cncc3n2)ccn1 = 10.55
• Cc1n[nH]cc1-c1nc(N2CCC3(CCN(C)C3)CC2)c2ccncc2n1 = 9.82
• C=CCOc1cncc2nc(-c3ccncc3)nc(N3CCC4(CCNC4)CC3)c12 = 10.74
• Clc1[nH]ncc1-c1nc(N2CCC3(CCNC3)CC2)c2ccncc2n1 = 9.96
• c1cc(-c2nc(N3CCC4(CC3)CC3COCCN3C4)c3ccncc3n2)ccn1 (racemic) = 8.37
• COc1cncc2nc(-c3ccncc3)nc(N3CCC4(CCN(CC5(F)COC5)C4)CC3)c12 = 10.41
• CN1CCC2(CCN(c3nc(-c4ccncc4)nc4c(C#N)nccc34)CC2)C1 = 8.39
• COc1cncc2nc(-c3ccncc3)nc(N3CCC4(CCNC4)CC3)c12 = 10.55
• CCN1CCC2(CCN(c3nc(-c4cn[nH]c4C)nc4cnccc34)CC2)C1 = 10.05
• O[C@@H]1CC[C@@H]1N1CCC2(CCN(c3nc(-c4ccncc4)nc4cnccc34)CC2)C1 (single isomer, unassigned) = 8.86
• OC1CNCC12CCN(c1nc(-c3ccncc3)nc3cnccc13)CC2 (stereo not drawn) = 8.84
• OC1CC(N2CCC3(CCN(c4nc(-c5ccncc5)nc5cnccc45)CC3)C2)C1 (stereo not drawn) = 9.51
• COCCOc1cncc2nc(-c3ccncc3)nc(N3CCC4(CCNC4)CC3)c12 = 9.96
• CN(C)C(=O)C1CC2(CCN(c3nc(-c4ccncc4)nc4cnccc34)CC2)CN1 (stereo not drawn) = 8.13
• NC(=O)CN1CCC2(CCN(c3nc(-c4ccncc4)nc4cnccc34)CC2)C1 = 9.35
• CN(C)S(=O)(=O)CCN1CCC2(CCN(c3nc(-c4ccncc4)nc4cnccc34)CC2)C1 = 8.92
• Cc1n[nH]c(C)c1-c1nc(N2CCC3(CCNC3)CC2)c2ccncc2n1 = 8.85
• Cc1n[nH]cc1-c1nc(N2CCC3(CCN(C)C3)CC2)c2cc(Cc3ccccn3)ncc2n1 = 9.60
• c1cc(-c2nc(N3CCC4(CCNC4)CC3)c3c(OC4COC4)cncc3n2)ccn1 = 10.26

* * *

- measurement-target: Human LATS2 catalytic domain (Homo sapiens (Human))
- measurement-description: LATS2 High ATP HTRF Assay
- Type: biochemical
- condition-parameters: no asterisk: LATS2 High ATP HTRF Assay, 5000 μM ATP, 0.05 nM LATS2
pKi: −log10 of the molar value.
reported-endpoint: pKi

- Fc1cnccc1-c1nc(N2CCC3(CCNC3)CC2)c2ccncc2n1 [Compound 182]: 8.65
- CC(C)c1cncc2nc(-c3ccncc3)nc(N3CCC4(CCNC4)CC3)c12 [Example 240]: 8.70
- COc1cncc2nc(-c3ccncc3)nc(N3CCC4(CCNC4=O)CC3)c12 [Compound 279]: 8.35
- C#CCCN1CCC2(CCN(c3nc(-c4ccncc4)nc4cnccc34)CC2)C1 [Compound 256]: 9.72
- [O-][n+]1ccc(-c2nc(N3CCC4(CCNC4)CC3)c3ccncc3n2)cc1 [Compound 251]: 8.46
- Cc1[nH]ncc1-c1nc(N2CCC3(CC2)CCN([C@@H]2CC[C@@H]2O)C3)c2ccncc2n1 (single isomer, unassigned) [Example 230]: 10.37
- C#CC(C)(O)CN1CCC2(CCN(c3nc(-c4ccncc4)nc4cnccc34)CC2)C1 (centres unmarked) [Compound 271]: 10.39
- CN1CCC2(CCN(c3nc(-c4ccncc4)nc4cnc(CC(F)(F)F)cc34)CC2)C1 [Compound 195]: 10.41

* * *

compounds and their reported EC50
- System: TAZ nuclear translocation in SW1990 cells
- measurement-description: TAZ Nuclear Translocation Assay
- Type: cell-based
- condition-parameters: Homo sapiens, 4 hours
reported-endpoint: EC50 (µM)

* c1cc(-c2nc(N3CCC4(CCNC4)CC3)c3c(OC4COC4)cncc3n2)ccn1 [Compound 260] | 4
* Cc1n[nH]cc1-c1nc(N2CCC3(CCN(C)C3)CC2)c2ccncc2n1 [Compound 143] | 0.7
* COCc1cncc2nc(-c3ccncc3)nc(N3CCC4(CCNC4)CC3)c12 [Compound 243] | 3.9
* Cc1n[nH]cc1-c1nc(N2CCC3(CCN(CCF)C3)CC2)c2ccncc2n1 [Example 219] | 0.46

* * *

- measurement-target: Human LATS1 catalytic domain (Homo sapiens (Human))
- Sequence (O95835 590-1130, one chain of several): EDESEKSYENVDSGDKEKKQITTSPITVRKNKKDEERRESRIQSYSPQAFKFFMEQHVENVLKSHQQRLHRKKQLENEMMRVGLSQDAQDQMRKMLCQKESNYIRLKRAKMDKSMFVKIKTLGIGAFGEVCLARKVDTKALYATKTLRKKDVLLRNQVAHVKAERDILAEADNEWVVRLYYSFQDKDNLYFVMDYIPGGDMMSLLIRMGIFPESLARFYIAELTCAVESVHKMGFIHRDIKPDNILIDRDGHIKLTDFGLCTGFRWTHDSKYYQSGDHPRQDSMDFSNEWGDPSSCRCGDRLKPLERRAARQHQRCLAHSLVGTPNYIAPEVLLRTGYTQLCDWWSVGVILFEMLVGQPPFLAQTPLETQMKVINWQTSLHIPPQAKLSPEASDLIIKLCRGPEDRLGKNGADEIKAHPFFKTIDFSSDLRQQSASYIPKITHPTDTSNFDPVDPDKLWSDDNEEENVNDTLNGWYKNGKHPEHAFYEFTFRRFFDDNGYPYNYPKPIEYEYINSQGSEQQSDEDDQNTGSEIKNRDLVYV
pKi: −log10 of the molar value.
compounds and their reported pKi
reported-endpoint: pKi

- c1cc(-c2nc(N3CCC4(CCNC4)CC3)c3ccncc3n2)ccn1: 10.29
- O[C@@H]1CCC[C@H]1N1CCC2(CCN(c3nc(-c4ccncc4)nc4cnccc34)CC2)C1 (single isomer, unassigned): 11.24
- C[C@@H](O)CN1CCC2(CCN(c3nc(-c4ccncc4)nc4cnccc34)CC2)C1 (single isomer, unassigned): 11.10
- Cc1n[nH]cc1-c1nc(N2CCC3(CC2)CCN(C2CCCC2)C3)c2ccncc2n1: 10.89

* * *

- measurement-target: Human LATS2 catalytic domain (Homo sapiens (Human), UniProt Q9NRM7)
- measurement-description: LATS2 High ATP HTRF Assay
- Type: biochemical
- condition-parameters: no asterisk: LATS2 High ATP HTRF Assay, 5000 μM ATP, 0.05 nM LATS2
pKi: −log10 of the molar value.
reported-endpoint: pKi

* O[C@@H]1CCC[C@H]1N1CCC2(CCN(c3nc(-c4ccncc4)nc4cnccc34)CC2)C1 (single isomer, unassigned) | 10.14
* CN1CCC2(CCN(c3nc(-c4ccncc4)nc4cnc(C(F)(F)F)cc34)CC2)C1 | 7.35
* CC(C)(O)CN1CCC2(CCN(c3nc(-c4ccncc4)nc4cnccc34)CC2)C1 | 10.12
* Cc1[nH]ncc1-c1nc(N2CCC3(CCNC3)CC2)c2c(F)cncc2n1 | 8.65
* CN(C)c1cncc2nc(-c3ccncc3)nc(N3CCC4(CCNC4)CC3)c12 | 8.74
* Cc1n[nH]cc1-c1nc(N2CCC3(CCN(C[C@H](C)O)C3)CC2)c2ccncc2n1 (single isomer, unassigned) | 10.07
* O[C@H]1CC[C@@H](N2CCC3(CCN(c4nc(-c5ccncc5)nc5cnccc45)CC3)C2)C1 (single isomer, unassigned) | 9.35
